Each recorded value in this set is attributed to patent US20050209336A1.

system: TNFα production by LPS-stimulated monocytes; test: Monocyte assay: LPS-induced TNFα secretion; assay type: cell-based; conditions: Homo sapiens, inhibition of TNFα production, LPS 100 ng/ml, 24 h, mean of three donors, read-out: Mean EC50
EC50 values for the compounds below.
Dear colleague, please return just the value in µM, with no unit written.

// below: answered compounds
COMPOUND	EC50 (µM)
CCCCC[C@H](O)c1ccc([C@H]2CCC(=O)[C@@H]2CCCCCCC(=O)O)cc1 (single isomer, unassigned) [Peak 1, Mixture 1 acid]	1.78
CCCCC[C@@H](O)c1ccc([C@H]2CCC(=O)[C@@H]2CCCCCCC(=O)O)cc1 (single isomer, unassigned) [Peak 1, Mixture 2 acid]	6.73

Switching to the query record.
q: Quick one: EC50 of CCCCCC(O)c1ccc(C2CCC(=O)C2CCCCCCC(=O)O)cc1 (racemic) [AH13205, reference compound] ?
a: 19.8

----------
Target: human EP3 receptor (Homo sapiens, UniProt P43115)
Construct: expressed in transfected cells
Sequence (P43115 1-390): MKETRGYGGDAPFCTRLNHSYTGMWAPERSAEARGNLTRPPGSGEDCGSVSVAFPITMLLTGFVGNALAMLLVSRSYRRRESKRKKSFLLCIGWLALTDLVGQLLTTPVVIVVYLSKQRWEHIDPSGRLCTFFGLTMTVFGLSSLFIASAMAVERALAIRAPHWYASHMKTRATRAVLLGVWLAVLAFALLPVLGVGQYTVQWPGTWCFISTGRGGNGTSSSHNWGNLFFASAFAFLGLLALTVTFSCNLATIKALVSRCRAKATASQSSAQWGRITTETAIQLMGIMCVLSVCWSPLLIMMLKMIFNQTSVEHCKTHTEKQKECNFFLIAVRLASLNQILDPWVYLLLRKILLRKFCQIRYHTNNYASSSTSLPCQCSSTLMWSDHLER
Assay: Radioligand ([3H]PGE2) competition displacement binding, human EP3 receptor membranes
Settings: [3H]PGE2 displacement, read-out: pKi EP3 (converted)
OBSERVED PROPERTY: Ki

Study these solved cases before continuing.
MOLECULE	Ki
CCCCC[C@H](O)c1ccc([C@H]2CCC(=O)[C@@H]2CCCCCCC(=O)O)cc1 (single isomer, unassigned) [Peak 1, Mixture 1 acid]	2 µM
CCCCC[C@@H](O)c1ccc([C@H]2CCC(=O)[C@@H]2CCCCCCC(=O)O)cc1 (single isomer, unassigned) [Peak 1, Mixture 2 acid]	15.8 µM
CCCCC[C@H](O)c1ccc([C@@H]2CCC(=O)[C@H]2CCCCCCC(=O)O)cc1 (single isomer, unassigned) [Peak 2, Mixture 1 acid]	15.8 µM
CCCCC[C@@H](O)c1ccc([C@@H]2CCC(=O)[C@H]2CCCCCCC(=O)O)cc1 (single isomer, unassigned) [Peak 2, Mixture 2 acid]	20 µM

Please look at the following molecule next.
q: Observed Ki on human EP3 receptor (Homo sapiens, UniProt P43115) for CCCCCC(O)c1ccc(C2CCC(=O)C2CCCCCCC(=O)O)cc1 (racemic) [AH13205, reference compound] , please.
a: 6.31 µM

----------
Target: human EP2 receptor (Homo sapiens)
Construct: expressed in transfected cells; host or cells: HEK cells (HEK-EP2)
Sequence (P43116 whole entry): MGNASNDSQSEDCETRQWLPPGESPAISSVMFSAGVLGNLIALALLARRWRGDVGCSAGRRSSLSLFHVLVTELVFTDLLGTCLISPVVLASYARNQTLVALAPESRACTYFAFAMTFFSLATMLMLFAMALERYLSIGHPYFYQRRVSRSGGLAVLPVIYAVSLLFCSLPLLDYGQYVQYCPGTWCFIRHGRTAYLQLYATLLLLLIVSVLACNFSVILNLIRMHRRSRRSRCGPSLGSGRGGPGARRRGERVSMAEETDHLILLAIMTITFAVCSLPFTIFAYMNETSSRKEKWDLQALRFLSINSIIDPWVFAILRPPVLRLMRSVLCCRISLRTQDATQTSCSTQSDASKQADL
Assay: cAMP production in HEK cells stably expressing the human EP2 receptor
Assay type: cell-based
Conditions: 15 min stimulation, 4 experiments, read-out: Mean EC50
Experimental: The following describes an in vitro assay to determine the effect of compounds on cyclase production, that is, to determine their functional efficacy at the EP2 receptor. HEK cells stably expressing the human EP2 receptor were used for these assays. HEK-EP2 cells were cultured in 96-well, poly-L-lysine coated plates at a density of 50,000 cells/well, and grown to confluence in humidified 95% O2/5% CO2 at 37° C. […]
pEC50 values, listed per item
Units for pEC50: none; it is -log10 of a concentration expressed in mol/L.

MOLECULE	pEC50
CCCCC[C@H](O)c1ccc([C@H]2CCC(=O)[C@@H]2CCCCCCC(=O)O)cc1 (single isomer, unassigned) [Peak 1, Mixture 1 acid]	8.00

q: Item under review: CCCCC[C@H](O)c1ccc([C@@H]2CCC(=O)[C@H]2CCCCCCC(=O)O)cc1 (single isomer, unassigned) [Peak 2, Mixture 1 acid] . Reported pEC50?
a: 6.49

q: What does the record list as pEC50 for CCCCC[C@@H](O)c1ccc([C@@H]2CCC(=O)[C@H]2CCCCCCC(=O)O)cc1 (single isomer, unassigned) [Peak 2, Mixture 2 acid] ?
a: 6.39

q: So what does the record say about pEC50 for CCCCC[C@@H](O)c1ccc([C@H]2CCC(=O)[C@@H]2CCCCCCC(=O)O)cc1 (single isomer, unassigned) [Peak 1, Mixture 2 acid] ?
a: 7.25

----------
tested on: IL-2 production by OKT3 activated T cells; experiment: Lymphocyte assay: IL-2 production by anti-CD3 (OKT3) stimulated T cells; type: cell-based, human; settings: Homo sapiens, T-cell, 24 h, inhibition of IL-2 production, mean of three to five donors (FIG. 10, table 8), read-out: Mean EC50
OBSERVED PROPERTY: EC50 (nM)
Numeric answer only, unit nM assumed.

q: Form field: reported EC50 of CCCCC[C@H](O)c1ccc([C@H]2CCC(=O)[C@@H]2CCCCCCC(=O)O)cc1 (single isomer, unassigned) [Peak 1, Mixture 1 acid]
a: 1320

----------
target: human EP2 receptor (Homo sapiens); construct: expressed in transfected cells; host or cells: HEK cells (HEK-EP2); assay: Radioligand ([3H]PGE2) competition displacement binding, human EP2 receptor membranes; conditions: human EP2 membranes, [3H]PGE2 displacement, Cheng-Prusoff; mean of 4 experiments; read-out: pKi EP2 (converted)
Here the recorded Ki is given for each entry.
The answer is to be given in µM; state only the numeric part.

q: So what's the measured Ki for this one? CCCCC[C@H](O)c1ccc([C@@H]2CCC(=O)[C@H]2CCCCCCC(=O)O)cc1 (single isomer, unassigned) [Peak 2, Mixture 1 acid]
a: 1.58

q: Please report the recorded Ki for CCCCCC(O)c1ccc(C2CCC(=O)C2CCCCCCC(=O)O)cc1 (racemic) [AH13205, reference compound] .
a: 0.398

q: Ki lookup needed for CCCCC[C@@H](O)c1ccc([C@H]2CCC(=O)[C@@H]2CCCCCCC(=O)O)cc1 (single isomer, unassigned) [Peak 1, Mixture 2 acid] , thanks.
a: 0.126

q: Any idea what its Ki is? The compound is CCCCC[C@H](O)c1ccc([C@H]2CCC(=O)[C@@H]2CCCCCCC(=O)O)cc1 (single isomer, unassigned) [Peak 1, Mixture 1 acid]
a: 0.0794

q: Consider the compound shown here: CCCCC[C@@H](O)c1ccc([C@@H]2CCC(=O)[C@H]2CCCCCCC(=O)O)cc1 (single isomer, unassigned) [Peak 2, Mixture 2 acid] What is its recorded Ki?
a: 0.501

----------
biological target: human EP4 receptor (Homo sapiens, UniProt P35408); construct: expressed in transfected cells; test: Radioligand ([3H]PGE2) competition displacement binding, human EP4 receptor membranes; settings: [3H]PGE2 displacement, read-out: pKi EP4 (converted)
Sequence (P35408 whole entry): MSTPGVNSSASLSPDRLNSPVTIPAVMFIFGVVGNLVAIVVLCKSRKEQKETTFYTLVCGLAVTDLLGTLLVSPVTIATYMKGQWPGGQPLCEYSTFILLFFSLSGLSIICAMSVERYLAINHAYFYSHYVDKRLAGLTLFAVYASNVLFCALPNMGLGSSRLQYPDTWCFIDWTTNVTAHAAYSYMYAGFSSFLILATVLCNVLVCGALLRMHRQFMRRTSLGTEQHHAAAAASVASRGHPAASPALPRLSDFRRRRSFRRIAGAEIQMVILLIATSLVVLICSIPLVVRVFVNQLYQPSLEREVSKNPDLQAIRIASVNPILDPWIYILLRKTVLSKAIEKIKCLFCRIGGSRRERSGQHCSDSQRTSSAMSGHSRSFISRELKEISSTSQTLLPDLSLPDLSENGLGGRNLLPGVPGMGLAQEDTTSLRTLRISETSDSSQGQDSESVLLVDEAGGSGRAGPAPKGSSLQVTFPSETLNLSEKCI
Please note: Ki exactly at 20 µM is NOT MET. Only values below 20 µM get MET.

COMPOUND	DISCRETE LABEL
CCCCC[C@@H](O)c1ccc([C@H]2CCC(=O)[C@@H]2CCCCCCC(=O)O)cc1 (single isomer, unassigned) [Peak 1, Mixture 2 acid]	MET
CCCCC[C@@H](O)c1ccc([C@@H]2CCC(=O)[C@H]2CCCCCCC(=O)O)cc1 (single isomer, unassigned) [Peak 2, Mixture 2 acid]	MET
CCCCCC(O)c1ccc(C2CCC(=O)C2CCCCCCC(=O)O)cc1 (racemic) [AH13205, reference compound]	NOT MET
CCCCC[C@H](O)c1ccc([C@@H]2CCC(=O)[C@H]2CCCCCCC(=O)O)cc1 (single isomer, unassigned) [Peak 2, Mixture 1 acid]	NOT MET

Continue with the next compound.
q: Lab note: confirm whether the reported Ki for this compound is below 20 µM, equality not counting. compound: CCCCC[C@H](O)c1ccc([C@H]2CCC(=O)[C@@H]2CCCCCCC(=O)O)cc1 (single isomer, unassigned) [Peak 1, Mixture 1 acid]
a: MET

----------
test system: lymphocyte proliferation; experiment: Lymphocyte proliferation driven by immobilised anti-CD3 antibody; format: cell-based, human; settings: Homo sapiens; inhibition of lymphocyte proliferation, 72 h, mean of three donors; read-out: Mean EC50
OBSERVED PROPERTY: pEC50
To interpret pEC50, take it as minus log10 of a concentration measured in moles per litre.

q: Endpoint output: pEC50 of CCCCC[C@H](O)c1ccc([C@H]2CCC(=O)[C@@H]2CCCCCCC(=O)O)cc1 (single isomer, unassigned) [Peak 1, Mixture 1 acid] . Value?
a: 5.00
